GI50 by entry:
# Test system: T-47D breast
# Run description: NCI tumour cell line growth inhibition, 48 h

Observe how each entry below is paired with its result.
>  <Given smiles>
c1cc2[nH]ncc2cc1-c1nc2ccc3[nH]ncc3c2c2c1CCCC2

>  <GI50>
2.02 µM

$$$$
>  <Given smiles>
CCOC(=O)c1c(C)n2c(=O)cc(C)c3c(O)c(O)cc1c32

>  <GI50>
9.26 µM

$$$$
>  <Given smiles>
C/C(=C\CCc1ccoc1)CC/C=C(\C)CCCN1CCOCC1

>  <GI50>
3.62 µM

$$$$
>  <Given smiles>
COc1cc2nc(SCC(=O)Nc3cc(OC)c(OC)c(OC)c3)n(Cc3ccccc3)c(=O)c2cc1OC

>  <GI50>
6.57 µM

$$$$
>  <Given smiles>
CCCCCCCCCCCCCC1=NCCN1CCO

>  <GI50>
4.57 µM

$$$$

q: Which measured GI50 value corresponds to `COc1ccc2[nH]cc([C@@H]3C4CCC(C4)[C@H]3NCc3cccc(CN[C@H]4C5CCC(C5)[C@@H]4c4c[nH]c5ccc(OC)cc45)c3)c2c1` ?
a: 1.33 µM

q: Now the compound `Nc1nc2c(s1)CCc1c-2c(Br)n(Cc2ccccc2)c1Br`
a: 3.17 µM

q: Now the compound `O=C1NC(=O)C(=C/C=C/c2ccccc2)C(=O)N1`
a: 11.6 µM

q: Now the compound `COc1ccc(C(=O)COC(=O)[C@H](C[Se][Se]C[C@H](NC(=O)c2ccc(Br)cc2F)C(=O)OCC(=O)c2ccc(OC)cc2)NC(=O)c2ccc(Br)cc2F)cc1`
a: 1.73 µM
